- Tested on: K. pneumoniae 1711
- Experiment Summary: Antibiotic resistance profile of clinical isolate (Table S1); on Interpretation: key: S: Sensible; I: Intermediate; R: Resistant
- Format: cell-based, Klebsiella pneumoniae
- Measurement Context: Table S1, K. pneumoniae 1711
Result Type: Interpretation

The following molecules have reported results that may help.
- Molecule: "C[C@H]1[C@H](NC(=O)/C(=N\\OC(C)(C)C(=O)O)c2csc(N)n2)C(=O)N1S(=O)(=O)O [Aztreonam]"
  Interpretation: "R"
- Molecule: "CC(C)(O/N=C(\\C(=O)N[C@@H]1C(=O)N2C(C(=O)[O-])=C(C[N+]3(CCNC(=O)c4ccc(O)c(O)c4Cl)CCCC3)CS[C@H]12)c1csc(N)n1)C(=O)O [Cefiderocol]"
  Interpretation: "I"
- Molecule: "CNC(C)C1CCC(N)C(OC2C(N)CC(N)C(OC3OCC(C)(O)C(NC)C3O)C2O)O1 (centres unmarked) [Gentamicin]"
  Interpretation: "R"
- Molecule: "CC1(C)S[C@@H]2[C@H](NC(=O)[C@H](N)c3ccccc3)C(=O)N2[C@H]1C(=O)O [Ampicillin]"
  Interpretation: "R"

Here is another molecule to look at.
The molecule listed as C[C@@H](O)[C@H]1C(=O)N2C(C(=O)O)=C(S[C@@H]3CN[C@H](C(=O)N(C)C)C3)[C@H](C)[C@H]12 [Meropenem] has a reported Interpretation of R

---

- Tested on: E. coli 716
- Experiment Summary: Antibiotic resistance profile of clinical isolate (Table S1); further: key: S: Sensible; I: Intermediate; R: Resistant
- Format: cell-based, Escherichia coli
- Measurement Context: Table S1, E. coli 716
Result Type: Interpretation

The following compounds have reported results that may help.
- Compound: "CO/N=C(\\C(=O)N[C@@H]1C(=O)N2C(C(=O)O)=C(COC(N)=O)CS[C@H]12)c1ccco1 [Cefuroxime]"
  Value Observed: "R"
- Compound: "C[C@@H](O)[C@H]1C(=O)N2C(C(=O)O)=C(S[C@@H]3CN[C@H](C(=O)N(C)C)C3)[C@H](C)[C@H]12 [Meropenem]"
  Value Observed: "R"
- Compound: "C[C@@H]1O[C@@H]1P(=O)(O)O [Fosfomycin]"
  Value Observed: "S"
- Compound: "CN(C)c1cc(NC(=O)CNC(C)(C)C)c(O)c2c1C[C@H]1C[C@H]3[C@H](N(C)C)C(O)=C(C(N)=O)C(=O)[C@@]3(O)C(O)=C1C2=O [Tigecycline]"
  Value Observed: "R"
- Compound: "C[C@H]1COc2c(N3CCN(C)CC3)c(F)cc3c(=O)c(C(=O)O)cn1c23 [Levofloxacin]"
  Value Observed: "R"

The compound listed as CNC(C)C1CCC(N)C(OC2C(N)CC(N)C(OC3OCC(C)(O)C(NC)C3O)C2O)O1 (stereo not shown) [Gentamicin] has a reported Interpretation of S

The compound listed as CC1(C)S[C@@H]2[C@H](NC(=O)[C@H](N)c3ccccc3)C(=O)N2[C@H]1C(=O)O [Ampicillin] has a reported Interpretation of R

---

- Tested on: E. coli 2267
- Experiment Summary: Antibiotic resistance profile of clinical isolate (Table S1)
- Format: cell-based, Escherichia coli
- Measurement Context: Escherichia coli; Table S1, E. coli 2267; read-out: MIC
Result Type: MIC

- Molecule: "C[C@@H](O)[C@H]1C(=O)N2C(C(=O)O)=C(S[C@@H]3CN[C@H](C(=O)Nc4cccc(C(=O)O)c4)C3)[C@H](C)[C@H]12"
  Test Target: "E. coli 2267"
  Result Type: "MIC"
  Value Observed: "> 1 µg/mL"
- Molecule: "C[C@@H]1O[C@@H]1P(=O)(O)O"
  Test Target: "E. coli 2267"
  Result Type: "MIC"
  Value Observed: "≤ 16 µg/mL"
- Molecule: "CO[C@@]1(NC(=O)C(C(=O)O)c2ccsc2)C(=O)N2[C@@H](C(=O)O)C(C)(C)S[C@@H]21 (stereo partly shown)"
  Test Target: "E. coli 2267"
  Result Type: "MIC"
  Value Observed: "> 32 µg/mL"

Here is another molecule to look at.
Log: E. coli 2267, molecule C[C@@H](O)[C@H]1C(=O)N2C(C(=O)O)=C(S[C@@H]3CN[C@H](C(=O)N(C)C)C3)[C@H](C)[C@H]12 , MIC = > 16 µg/mL

---

- Tested on: E. coli 2267
- Experiment Summary: Antibiotic resistance profile of clinical isolate (Table S1)
- Format: cell-based, Escherichia coli
- Measurement Context: Escherichia coli; Table S1, E. coli 2267; read-out: MIC
# MIC annotations

The following compounds have reported results that may help.
- Compound: "NC[C@H]1O[C@H](O[C@H]2[C@H](O)[C@@H](O[C@H]3O[C@H](CO)[C@@H](O)[C@H](N)[C@H]3O)[C@H](N)C[C@@H]2N)[C@H](N)C[C@@H]1O [Tobramycin]"
  MIC: "≤ 1 µg/mL"
- Compound: "CO/N=C(\\C(=O)N[C@@H]1C(=O)N2C(C(=O)O)=C(CSc3nc(=O)c(=O)[nH]n3C)CS[C@H]12)c1csc(N)n1 [Ceftriaxone]"
  MIC: "> 4 µg/mL"

The compound listed as CN(C)c1cc(NC(=O)CNC(C)(C)C)c(O)c2c1C[C@H]1C[C@H]3[C@H](N(C)C)C(O)=C(C(N)=O)C(=O)[C@@]3(O)C(O)=C1C2=O [Tigecycline] has a reported MIC of > 2 µg/mL

---

- Test system: K. pneumoniae 1711
- Experiment Summary: Antibiotic resistance profile of clinical isolate (Table S1); on Interpretation: key: S: Sensible; I: Intermediate; R: Resistant
- Assay type: cell-based, Klebsiella pneumoniae
- Measurement Context: Table S1, K. pneumoniae 1711
Result Type: Interpretation

- Chemical Structure: "CC(C)(O/N=C(\\C(=O)N[C@@H]1C(=O)N2C(C(=O)[O-])=C(C[n+]3ccccc3)CS[C@H]12)c1csc(N)n1)C(=O)O"
  Interpretation: "R"
- Chemical Structure: "CO/N=C(\\C(=O)N[C@@H]1C(=O)N2C(C(=O)O)=C(CSc3nc(=O)c(=O)[nH]n3C)CS[C@H]12)c1csc(N)n1"
  Interpretation: "R"
- Chemical Structure: "NC[C@H]1O[C@H](O[C@H]2[C@H](O)[C@@H](O[C@H]3O[C@H](CO)[C@@H](O)[C@H](N)[C@H]3O)[C@H](N)C[C@@H]2N)[C@H](N)C[C@@H]1O"
  Interpretation: "R"
- Chemical Structure: "NCC[C@H](O)C(=O)N[C@@H]1C[C@H](N)[C@@H](O[C@H]2O[C@H](CN)[C@@H](O)[C@H](O)[C@H]2O)[C@H](O)[C@H]1O[C@H]1O[C@H](CO)[C@@H](O)[C@H](N)[C@H]1O"
  Interpretation: "S"
- Chemical Structure: "C[C@H]1COc2c(N3CCN(C)CC3)c(F)cc3c(=O)c(C(=O)O)cn1c23"
  Interpretation: "R"
- Chemical Structure: "C[C@@H]1O[C@@H]1P(=O)(O)O"
  Interpretation: "S"

Here is another compound to look at.
The compound listed as C[C@@H](O)[C@H]1C(=O)N2C(C(=O)O)=C(SCCN=CN)C[C@H]12 has a reported Interpretation of R

---

- System: K. pneumoniae 1711
- Experiment Summary: Antibiotic resistance profile of clinical isolate (Table S1)
- Assay type: cell-based, Klebsiella pneumoniae
- Measurement Context: Klebsiella pneumoniae; Table S1, K. pneumoniae 1711; read-out: MIC
# MIC annotations

The following molecules have reported results that may help.
- Molecule: "C[C@@H]1O[C@@H]1P(=O)(O)O [Fosfomycin]"
  Value Observed: "32 µg/mL"
- Molecule: "NCC[C@H](O)C(=O)N[C@@H]1C[C@H](N)[C@@H](O[C@H]2O[C@H](CN)[C@@H](O)[C@H](O)[C@H]2O)[C@H](O)[C@H]1O[C@H]1O[C@H](CO)[C@@H](O)[C@H](N)[C@H]1O [Amikacin]"
  Value Observed: "≤ 4 µg/mL"
- Molecule: "CO[C@@]1(NC(=O)C(C(=O)O)c2ccsc2)C(=O)N2[C@@H](C(=O)O)C(C)(C)S[C@@H]21 (stereo partly shown) [Temocillin]"
  Value Observed: "> 32 µg/mL"

Log: K. pneumoniae 1711, molecule CO/N=C(\C(=O)N[C@@H]1C(=O)N2C(C(=O)O)=C(COC(N)=O)CS[C@H]12)c1ccco1 [Cefuroxime] , MIC = > 8 µg/mL

Log: K. pneumoniae 1711, molecule C[C@@H](O)[C@H]1C(=O)N2C(C(=O)O)=C(S[C@@H]3CN[C@H](C(=O)N(C)C)C3)[C@H](C)[C@H]12 [Meropenem] , MIC = > 16 µg/mL

Log: K. pneumoniae 1711, molecule CO/N=C(\C(=O)N[C@@H]1C(=O)N2C(C(=O)O)=C(CSc3nc(=O)c(=O)[nH]n3C)CS[C@H]12)c1csc(N)n1 [Ceftriaxone] , MIC = > 4 µg/mL

Log: K. pneumoniae 1711, molecule C[C@@H](O)[C@H]1C(=O)N2C(C(=O)O)=C(S[C@@H]3CN[C@H](C(=O)Nc4cccc(C(=O)O)c4)C3)[C@H](C)[C@H]12 [Ertapenem] , MIC = > 1 µg/mL

Source of measurements: paper PMC12024264
